Property: cAMP EC50; scope: individual binders
Molecular target: human GLP-1 receptor (human, UniProt P43220 24-463)
Experiment: cell-based or functional assay
# answer = value followed by unit

Some entries whose results are on file:
* IP149 (Fc fusion) YSQGTFTSDYSKLLEEEAVRLFIEWLVKGPAPPGGSGSTASSGSGSATGGGGAATHTCPPCPAPEF | 0.07 nM
* IP328 (Fc fusion) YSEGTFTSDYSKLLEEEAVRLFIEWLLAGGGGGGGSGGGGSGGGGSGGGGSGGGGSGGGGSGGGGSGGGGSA | 1.2 nM

The reported cAMP EC50 of the binder IP361 (Fc fusion) YSEGTFTSDYRILKEEEAVRLFIEWLLAGGGGGGSGGGGSGGGGSGGGGSATHTCPPC was 3.4 nM
